Listed below: EC50 values for each entry.
Test System: human CCR8 (UniProt P51685 1-355)
Method: FACS cell binding
Write down the numeric answer in nM and omit the unit.

Consider the following illustrative entries.
[
  {
    "Binder": "HFB11-8 (antibody, V domains shown) VH: EVQLVETGGGLVQPKGSLKLSCAASGFRFNTNAMNWVRQAPGKGLEWVARIRSKSNNYATHYVDSVKDRFTVSRDDSQSMLYLQMNNLKAEDTAMYYCVRGSDNNYYYAMDYWGQGTSVTVSS VL: DIVMTQAAPSVPVTPGESVSISCRSSKSLLHSNGNTYLYWFLQRPGQSPQLLIYRMSNLASGVPDRFSGSGSGTSFTLRISRVEVEDVGVYYCMQHLEYPFTFGSGTKLEIK",
    "EC50 (nM)": 0.53
  },
  {
    "Binder": "HFB11-21 (antibody, V domains shown) VH: QVQLQQPGAELVKPGASVKLSCKASGYTFISYWMHWVKQRPGRGLEWIGRIDPNSGKTKYNEKFKTKATLTVDKSSSTAYMHLNSLTSDDSAVYYCAREGWGDYWGQGTTLTVSS VL: DIVLTQSPASLAVSLGQRATISCRASESVDNYGISFMHWYQQKPGQPPRLLIYRASNLASGIPARFSGSGSSTDFTLTINPVETDDIATYYCQQSNKDPRTFGGGTKLEIK",
    "EC50 (nM)": 9.05
  },
  {
    "Binder": "HFB11-10 (antibody, V domains shown) VH: EVQLVETGGGLVQPKGSLKLSCAASGFRFNTNAMNWVRQAPGKDLEWVARIRSKSNNYATYYADSVKDRFTISRDDSQSMLYLQMNNVKTEDTAMYYCVRGSDNNYYYAMDYWGQGTSVTVSS VL: DIVMTQAAPSVPVTPGESVSISCRSSKSLLHSNGNTYLYWFLQRPGQSPQLLIYRMSNLASGVPDRFSGSGSGTAFTLRISRVEAEDVGVYYCMQHLEYPFTFGSGTKLEIK",
    "EC50 (nM)": 0.57
  },
  {
    "Binder": "HFB11-3 (antibody, V domains shown) VH: EVQLVESGGGLVQPQGSLKLSCAASGFSFNTYAMNWVRQAPGKGLQWVARIRSKSNNYATYYADSVKDRFTISRDDSESMLYLQMNNLKTEDAAMYYCVRGKDANYFYAMDYWGQGTSVTVSS VL: DIVMTQAAPSVPVTPGESVSISCRSSKSLLHSNGNTYLYWFLQRPGQSPQLLIYRMSNLASGVPDRFSGSGSGTAFTLRISRVEAEDVGVYYCMQHLEYPFTFGAGTKLELK",
    "EC50 (nM)": 1.63
  },
  {
    "Binder": "HFB11-19 (antibody, V domains shown) VH: QVQLQQSGAELVKPGASVKLSCKASGYTFTDYIIHWVKQRSGQGLEWIGWFSPRNNYVKYNERFTDKATLTADKSSNTVYMELSSLTSEDSAVYFCSRHGRNSIGFAYWGQGTLVTVSA VL: DIVMTQAAPSVPVTPGESVSISCRSSKSLLNSNGNTYLYWFLQRPGQSPQLLIYRMSNLASGVPDRFSGSGSGTAFTLRISRVEAEDVGVYYCMQHLEYPYTFGGGTKLEIK",
    "EC50 (nM)": 0.86
  }
]

Kindly review the next binder as well.
Could you share which EC50 value was measured for HFB11-2 (antibody, V domains shown) VH: EVQLVESGGGLVQPKGSLKLSCAASGFSFNTYAMNWVRQAPGKGLEWVARIRSKSNNYATYYADSVKDRFTISRDDSERMLYLQMNNLKTEDTAMYYCVRGGSYYSNHYFDYWGQGTTLTVSS VL: DIVMTQAAPSVPVTPGESVSISCRSSKSLLHSNGNTYLYWFLQRPGQSPQLLIYQMSNLASGVPDRFSGSGSGTAFTLRISRVEAEDVGVYYCMQHLEYPFTFGAGTKLELK ? 0.98
